Hi there, I'd appreciate the recorded 20% analgesic effect (time) for every entry that follows.
- System: Sprague-Dawley rats (nociceptive threshold)
- Assay type: in vivo, rat
- CONDITION_LABEL: 25 micromole/kg i.m.; Table 2
Provide only the numeric value, understood in D.

Consider the compound O=C(Oc1ccc2c3c1OC1C(O)CCC4(O)C(C2)N(CC2CCC2)CCC314)c1ccccc1 (centres unmarked) [nalbuphine benzoate] and give its measured 20% analgesic effect (time).
4.0

Consider the compound CC(C)(C)C(=O)Oc1ccc2c3c1OC1C(O)CCC4(O)C(C2)N(CC2CCC2)CCC314 (centres unmarked) [nalbuphine pivalate] and give its measured 20% analgesic effect (time).
3.6

Consider the compound CCCCCCC(=O)Oc1ccc2c3c1OC1C(O)CCC4(O)C(C2)N(CC2CCC2)CCC314 (centres unmarked) [nalbuphine enanthate] and give its measured 20% analgesic effect (time).
3.4

Consider the compound CCCCCCCCCC(=O)Oc1ccc2c3c1O[C@H]1[C@@H](O)CC[C@@]4(O)[C@@H](C2)N(CC2CCC2)CC[C@]314 [nalbuphine decanoate] and give its measured 20% analgesic effect (time).
7.5
